B1: BCL2L13 (parent)
chain: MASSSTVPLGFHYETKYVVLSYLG

# Variants of: B1
# TEST_DESCRIPTION: protein stability index of a GFP-peptide fusion (GPS, HEK-293T) (PSI 1-6); higher = more stable;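 further: lentivirally expressed fusions sorted by FACS into six bins by GFP to DsRed ratio, PSI derived from sequencing read proportions per bin multiplied by bin number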
# STUDY_CONDITIONS: c terminus: a fixed tail appended
Would you mind labelling by protein stability index? At or over 3 is true, under is false.

1) MASSSTVPLGFHYETKYVVLSLLG [Y22L] | true
2) MAISSTVPLGFHYETKYVVLSYLG [S3I] | true
3) MASSSTVPLGFHYEGKYVVLSYLG [T15G] | false

Query: Is it the case that MASSSTVPLGFHAETKYVVLSYLG [Y13A] has protein stability index reaching or exceeding 3?
Reply: false

Query: Does the reported protein stability index for MASSSTVPKGFHYETKYVVLSYLG [L9K] fall at or above the 3 mark?
Reply: false

Query: Threshold query (protein stability index >= 3) on MASSSTVPLGFHYETKTVVLSYLG [Y17T]
Reply: false

Query: Confirm if protein stability index reported for the variant MASSSTVPLGFVYETKYVVLSYLG [H12V] is 3 or above.
Reply: false

Query: Record MASSSTVPWGFHYETKYVVLSYLG [L9W] ; criterion: protein stability index no lower than 3. Met?
Reply: true

Query: Textbook exercise: given the entry MASSSTVPLGFHYETKYVVDSYLG [L20D] , state whether its protein stability index is greater than or equal to 3.
Reply: false

Query: Is protein stability index for MASSSTVPLGFHYETKYVVLSCLG [Y22C] at or above 3?
Reply: false

Cited source for all entries: the supplement of paper PMC10567573
